STUDY SYSTEM: T1, SARS-CoV-2 S trimer (SARS-CoV-2, UniProt P0DTC2 16-1213)
T1 construct: also called SARS-CoV-2 S protein; S homotrimer protein
METHOD NOTES: monoclonal phage ELISA, drawn table of OD450 values
QUANTITY KIND: OD450
Simply state the number, no unit and no words.

Example results:
| BINDER | RECORDED NUMBER |
| --- | --- |
| NCI-CoV-7A3 (VHH) VHH: QVQLVESGGGSVQPGGSLRLSCVVSGYTSSSRYMGWFRQVPGKGLEWVSGIKRDGTNTYYADSVKGRFTISQDNAKNTVYLQMNSLKPEDTAMYYCAAGSWYNQWGYSMDYWGKGTQVTVSS | 0.59 |
| NCI-CoV-8G12 (VHH) VHH: AVQLVDSGGGSVQAGGSLRLSCAASGYTSNMNHMGWFRQAPGKGLEWVSGIYSDGSTYYGDSVKGRFTISRDNAKNMLYLQMNNLKPEDTAVYYCSGDGGGIGYNYWGQGTQVTVSS | 0.6 |
| NCI-CoV-2D4 (VHH) VHH: EVQLVESGGGSVQAGGSLRLSCAASAVTSNTNYVGWLRQVPGKEREGVAGIYYDGGVYYDESVKGRFTISRDNAQNTVFLQMNSLKPEDTAMYYCGAGRGYRYQYGSAWYKPGQYHYWGQGTQVTVSS | 0.58 |

Q: Could you please provide reported OD450 for NCI-CoV-8A2 (VHH) VHH: AVQLVDSGGGSVQAGGSLRLSCAASGYTYSICTMGWYRQAPGEGLEWVSGINADGSNTHYTDSVKGRFTISRDNAKKTLYLQMNSLKPEDTAIYYCAAHGTYDKYAPCGGFAGTYTYWGQGTQVTVSS ? Thanks!
Ans: 0.61

Q: Return OD450 (reported value) for this binder: NCI-CoV-7E7 (VHH) VHH: AVQLVDSGGGSVQSGGSLRLSCVASGYTYSIYNMGWFRQAPGKGLEWVSGINSDGSNTYYADSVKGRFTISRDNAKNTLYLQMNSLKSEDTALYYCATLPICSGGYCPPGYWGQGTQVTVSS
Ans: 0.57

Q: Item NCI-CoV-8E1 (VHH) VHH: EVQLVESGGGSVQAGGSLRLSCAASGFTFSSYYMSWVRQAPGKGLEWVSGIYSDGSTYYGDSVKGRFTISRDNAKNTLYLQMNSLKSEDTALYYCAIGTGTTRQGQGTQVTVSS : provide OD450
Ans: 0.58

Q: Hello, please tell me recorded OD450 for this one: NCI-CoV-7E5 (VHH) VHH: AVQLVESGGGSVQAGGSLRLSCAASGYTYSSNYMGWFRQAPGKELEWVSGIYSDGRTYYGDSVKGRFTISRDNAKNTVYLQMNSLKPEDTAMYYCAAGSWYNQWGYSMDYWGKGTQVTVSS
Ans: 0.6

Q: Recall and state the measured OD450 for NCI-CoV-7C4 (VHH) VHH: EVQLVESGGGLVQPGGSLRLSCTASGFTFSSYDMSWVRQAPGKGLEWVSGINSGGNKIYYADSVKGRFTISRDNAKNTLYLQMSSLKSEDTALYYCAIGRLYSVKGQGTQVTVSS .
Ans: 0.76

Q: Identify the reported OD450 for the following entry. NCI-CoV-1H6 (VHH) VHH: AVQLVDSGGGSVQAGGSLNLSCVASGTTLRNGCMAWFRQVPGKEREVVAIIIRATSYTDYADSVKGRFTISQDNAKNTVYLQMKSLTPEDTATYYCAATLYRVNCAKREFDKWGQGTQVTVSS
Ans: 0.72

Values from patent US20230391852A1
